Listed next: entries and their corresponding TGI.
- Test system: RXF 393 renal
- assay-notes: NCI tumour cell line growth inhibition, 48 h
recorded-metric: TGI

| compound | tgt | result |
| --- | --- | --- |
| CC(=O)c1nccc2c1c(C)nc1ccccc12 | RXF 393 renal | > 100 µM |
| CCN(CC)CCOc1ccc(C2=C(c3ccccc3)CCc3cc(OC)ccc32)cc1 | RXF 393 renal | 35.9 µM |
| COc1cc([C@@H]2c3cc4c(cc3[C@@H](Nc3ccc(Cl)cc3C(=O)c3ccccc3Cl)[C@H]3COC(=O)[C@H]23)OCO4)cc(OC)c1OC | RXF 393 renal | > 75.3 µM |
| O=c1c2cc(F)ccc2sc2c(NCCCN3CCCC3)nc3ccccc3c12 | RXF 393 renal | 8.67 µM |
| O=C(Nc1ccccc1)Nc1ccccc1CNc1nc(Nc2ccc(OCCN3CCCC3)cc2)ncc1Cl | RXF 393 renal | 5.84 µM |
| Cc1nn(C(=O)c2ccccc2O)c2c1C(c1ccc(O)cc1)SC(N)=N2 (centres undefined) | RXF 393 renal | > 10 µM |
| C#Cc1ccc(-n2c(/C=C/c3cc(OC)c(OC)c(OC)c3)nc3ncccc3c2=O)cc1 | RXF 393 renal | > 100 µM |
| O=C(Cc1nc2ccc([N+](=O)[O-])cc2[nH]c1=O)C(=O)Nc1cc(Cl)c(Cl)cc1Cl | RXF 393 renal | > 100 µM |
| COC1(OC)/C(=C(\N)C=O)NC(C)(C)N1O | RXF 393 renal | > 100 µM |

----------
- Tested on: OVCAR-5 ovarian
- assay-notes: NCI tumour cell line growth inhibition, 48 h

| compound | TGI |
| --- | --- |
| C/C(=N\NC(=S)N1CCC(C2CCN(C(=S)N/N=C(\C)c3ccccn3)CC2)CC1)c1ccccn1 | > 100 µM |
| Clc1ccccc1C1=NN(c2ccccc2)C2c3cc(Br)ccc3OCC12 (stereo not drawn) | > 100 µM |
| O=C(O)c1ccccc1-c1ccccc1C(=O)c1ccccc1 | > 100 µM |
| COc1cc(OC)c(/C=C/S(=O)(=O)Cc2ccc(OC)c(NCC(=O)O)c2)c(OC)c1 | > 100 µM |
| COC(=O)C1=C(O)C(C(=O)OC)[C@@]2(O)[C@@H](C(=O)OC)C(c3ccc(OC(=O)C(CC(C)C)NC(C)=O)cc3)C[C@@H]1[C@@H]2C(=O)OC (stereo partly drawn) | > 100 µM |
| CN1CCN(C(=S)SCN2C(=O)c3ccccc3S2(=O)=O)CC1 | > 100 µM |
| CCCCCCN1C(=O)CN=C1Nc1ccc2cc3ccc(NC4=NCC(=O)N4CCCCCC)cc3nc2c1 | 4.12 µM |
| CC1(C)CC2(C)OC2C2(C1)N=NC(=Nc1ccccc1)O2 (stereo not drawn) | 26.2 µM |

----------
- Test system: NCI-H460 lung
Outcome codes: true for active, false for inactive

| molecule | category-label |
| --- | --- |
| CCCCCCCCCCCCCCCCCC1=NC(C)(C)CN1CCO | false |
| O=[N+]([O-])O.[NH-]C1CCCCC1[NH-].[NH-]C1CCCCC1[NH-].[NH-]C1CCCCC1[NH-].[OH-].[OH-].[OH-].[Pt+4].[Pt+4].[Pt+4] (stereo not drawn) | true |
| C#Cc1ccc(-n2c(/C=C/c3cc(OC)c(OC)c(OC)c3)nc3ncccc3c2=O)cc1 | false |

----------
- Tested on: LOX IMVI melanoma
- assay-notes: NCI tumour cell line growth inhibition, 48 h
recorded-metric: TGI (µM)

| compound | recorded-metric | unit-abbreviation | inequality-sign | numeric-readout |
| --- | --- | --- | --- | --- |
| CC(=O)C1=C(O)/C(=C\c2ccco2)OC1=O | TGI | µM | > | 10 |
| CSc1nc(Br)nc2c1ncn2C1CC(Oc2ccc(C)cc2)C(COc2ccc(C)cc2)O1 (stereo not given) | TGI | µM | > | 100 |
| COc1ccc(S(=O)(=O)Nc2ccc(-c3csc(N4C(=O)/C(=C/C=C\c5ccccc5)N=C4c4ccccc4)n3)cc2)cc1Cl | TGI | µM | = | 46.3 |
| O=C1c2cccc3cccc(c23)C(=O)N1CCCN1CCN(CCCN2C(=O)c3cccc4cccc(c34)C2=O)CC1 | TGI | µM | > | 100 |
| Cc1cccc(CC(C)(C)C)c1NC(=O)C(=O)C(C(=O)c1ccc2ccccc2c1)C1OC(=O)c2ccccc21 (stereo not given) | TGI | µM | = | 43.9 |

----------
- Test system: OVCAR-4 ovarian
- assay-notes: NCI tumour cell line growth inhibition, 48 h
Property: TGI; scope: individual molecules

| molecule | TGI |
| --- | --- |
| COc1cc(CC(=O)c2ccc3c(c2)OCO3)cc(OC)c1OC | > 100 µM |
| C=CC(C)(C)n1cc(C2=C(O)C(=O)C(c3cn(C(C)(C)C=C)c4ccccc34)=C(OC(C)=O)C2=O)c2ccccc21 | 2.64 µM |
| CCC1NCC(=O)c2c1[nH]c1ccccc21 (centres undefined) | > 100 µM |
| O=C1c2cccc3cccc(c23)C(=O)N1CCCN1CCN(CCCN2C(=O)c3cccc4cccc(c34)C2=O)CC1 | > 100 µM |
| Cc1cc(S(=O)(=O)NC(=NCC(=O)NN)NN)c(S)cc1Cl | > 10 µM |
| COc1cccc(N2N=C3c4ccccc4-n4c(nc5ccccc54)C3C2N)c1 (centres undefined) | > 100 µM |
| CC(=O)OCC1OC(n2c3c(c(-c4ccco4)c(C#N)c2=S)CCCC3)C(OC(C)=O)C(OC(C)=O)C1OC(C)=O (centres undefined) | > 31.6 µM |
| COc1ccc(S(=O)(=O)NCCNc2nccc(-c3c(-c4ccccc4)nc4sccn34)n2)cc1 | > 100 µM |
| CN1C(=O)[C@@]2(C=CC3(CC2)OCCO3)c2ccccc21 | > 50 µM |

----------
The entries below are paired with their reported GI50.
- System: OVCAR-4 ovarian
- assay-notes: NCI tumour cell line growth inhibition, 48 h

| molecular-string | GI50 |
| --- | --- |
| Cc1csc(Nc2nc(-c3cccc(Cl)c3)nc(C(Cl)(Cl)Cl)n2)n1 | 10.7 µM |
| COc1ncnc2c(-c3ccco3)cn(COCc3ccccc3)c12 | > 50 µM |
| Cn1cc(-c2nn3cc(-c4cccs4)nc3s2)c2cc(F)ccc21 | 5.77 µM |
| O=c1c2cc(F)ccc2sc2c(NCCCN3CCCC3)nc3ccccc3c12 | 2.01 µM |
| CCSc1nc(N)c2cnn(C)c2n1 | 81.2 µM |
| COc1ccc(N=C2NN=C(c3c[nH]c4ccccc34)CS2)cc1OC | 16 µM |
| O=[N+]([O-])c1cccc(-c2ncc(-c3ccc(Cl)cc3Cl)[nH]2)c1 | 3.18 µM |
| O=C1/C(=C/c2ccccc2)CN(C(=O)Oc2ccc([N+](=O)[O-])cc2)C/C1=C\c1ccccc1 | 1.77 µM |

----------
- Tested on: HOP-92 NSCLC
- assay-notes: NCI tumour cell line growth inhibition, 48 h
// GI50 lookup, one value per entry
recorded-metric: GI50

| molecule | result |
| --- | --- |
| COC1C(CO)OC(n2c3ccccc3c3c4c(c5c6ccccc6[nH]c5c32)C(=O)NC4=O)C(O)C1OC(=O)C(N)CCCCN (stereo unspecified) | 1.54 µM |
| Nc1ncnc2c1ncn2Cc1ccc(C23CC4CC(CC(C4)C2)C3)c(O)c1 | 16.4 µM |
| N#Cc1ccc(N2Cc3cc(Cl)ccc3OC3=C2C(=O)N(Cc2ccccc2)C3=O)cc1 | 1.45 µM |
| C=C(CC1(CC(=C)c2ccc(C(=O)O)cc2)C(=O)N(C)C(=O)N(C)C1=O)c1ccc(C(=O)O)cc1 | 78.4 µM |
| CC1SC2(CCCCC2)N(NC(=O)c2[nH]c3ccc(F)cc3c2-c2ccccc2)C1=O (stereo unspecified) | 16.9 µM |
| CCNC(=O)Oc1ccc(/C(=C(\C)c2ccc(Cl)cc2)c2ccc(OCCN3CCCCC3)cc2)cc1 | 2.7 µM |
| Cn1c(COC(=O)NCCN2CCOCC2)nc2c(N3CCOCC3)nc(-c3ccccc3)nc21 | 0.779 µM |
| CCCCCCCCCCCCCCCCCC1=NC(C)(C)CN1CCO | 1.4 µM |
| O=C(NO)C(O)C(O)C(O)C(O)CO (stereo unspecified) | > 100 µM |
| C#Cc1cccc(Nc2ncnc3ccc(-c4cncc(NS(C)(=O)=O)c4)cc23)c1 | 0.447 µM |
| C=C(C)[C@@H]1CCC[C@]2(C(=O)O)CC[C@]3(C)[C@@H](CC[C@@H]4[C@@]5(C)C/C(=C/c6ccncc6)C(=O)C(C)(C)[C@@H]5CC[C@]43C)[C@@H]12 | 1.71 µM |
| CC(C)(C)c1cc(C(=O)Nc2cc3ccccc3cc2C(=O)NCCN)cc(C(C)(C)C)c1 | 0.146 µM |
| CCC1(N2C(=O)c3c(F)c(F)c(F)c(F)c3C2=O)C(=O)NC(=O)N(c2ccccc2)C1=O (stereo unspecified) | 2.01 µM |
| COc1ccc(S(=O)(=O)NCCNc2nccc(-c3c(-c4ccccc4)nc4sccn34)n2)cc1 | 3.73 µM |
| O=C(CN=Cc1cccs1)CSC(c1ccccc1)c1ccccc1 | 20.7 µM |
| CCSc1nc(N)c2cnn(C)c2n1 | 77.4 µM |
